Listing: Kd of selected molecules
system name: cIAP-1 BIR-3 (Homo sapiens)
Construct: 40 nM of the respective IAP BIR3
Sequence (Q13490 253-363 limits assumed): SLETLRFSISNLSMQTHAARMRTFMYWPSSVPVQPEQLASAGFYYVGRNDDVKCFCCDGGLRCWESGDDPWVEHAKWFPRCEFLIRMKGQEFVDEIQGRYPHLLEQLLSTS
test: Fluorescence polarization binding to cIAP-1 BIR-3 with labeled peptide AbuRPF-K(5-Fam)-NH2
test settings: 40 nM BIR3, 5 nM labeled peptide, reported as ranges, read-out: KD (c-IAP-1 BIR3)

Recorded Kd, per entry:
molecular string	measured metric	observed
CN[C@@H](C)C(=O)N[C@H](C(=O)N1CC[C@@H]2[C@H]1[C@@H](OC(=O)Nc1cccc3ccccc13)CN2C(=O)NC(C)C)C(C)(C)C	Kd	< 100 nM
CN[C@@H](C)C(=O)N[C@H](C(=O)N1CC[C@@H]2[C@H]1[C@@H](COc1ccc(F)c(F)c1)CN2C(=O)OC)C(C)(C)C	Kd	< 100 nM
CN[C@@H](C)C(=O)N[C@H](C(=O)N1CC[C@@H]2[C@H]1[C@@H](OC(=O)N1CCOCC1)CN2C(=O)NC(C)C)C(C)(C)C	Kd	< 100 nM
CN[C@@H](C)C(=O)N[C@H](C(=O)N1CC[C@@H]2[C@H]1[C@@H](Oc1ccc(F)c(F)c1)CN2C(=O)CC(C)C)C(C)(C)C	Kd	< 100 nM
CN[C@@H](C)C(=O)N[C@H](C(=O)N1CC[C@H]2NC[C@H](Oc3ccccc3-c3ccccc3)[C@H]21)C1CCCCC1	Kd	< 100 nM

Proceeding to the next molecule to report its Kd.
Which Kd is listed for CN[C@@H](C)C(=O)N[C@H](C(=O)N1CC[C@@H]2[C@H]1[C@@H](Oc1ccc(F)c(F)c1)CN2C1CCOCC1)C(C)(C)C ?
< 100 nM
